# Tested on: leukemic K562 cells
# protocol_notes: Cytotoxicity assay against leukemic K562 cells, MTT
# settings: Homo sapiens, K562, 24 h, read-out: IC50 cytotoxicity K562 (Leukemic Cells)
outcome_measure: IC50 (µM)
# number only, unit µM dropped from output

Note down IC50 recorded for CC[C@H](C)[C@@H](OC(C)=O)[C@@H](C)C1=CC(=O)C2=C(O[C@]3(C)CC[C@H]4O[C@@H](C(C)(C)O)CC[C@]4(C)[C@H]3[C@@H]2O)C1=O
17.6

###

# System: colorectal cancer SW480 cells
# protocol_notes: Cytotoxicity assay against colorectal cancer SW480 cells, MTT
# settings: Homo sapiens, SW480, 24 h, read-out: IC50 cytotoxicity SW480 (Colorectal Cancer)
IC50 values, listed per item

compound	system_name	IC50
CC[C@H](C)[C@@H](OC(C)=O)[C@@H](C)C1=CC(=O)C2=C(O[C@]3(C)CC[C@H]4O[C@@H](C(C)(C)O)CC[C@]4(C)[C@H]3[C@@H]2O)C1=O	colorectal cancer SW480 cells	< 11.7 µM

Query compound follows.
Note down IC50 recorded for CC[C@H](C)[C@@H](OC(C)=O)[C@@H](C)C1=CC(=O)C2=C(O[C@]3(C)CC[C@H]4O[C@@H](C(C)(C)O)CC[C@]4(C)C3=C2)C1=O [Compound 4, anhydrocochlioquinone A]
< 12.1 µM

###

# Test system: nitric oxide (NO) production in RAW 264.7 cells
# protocol_notes: Nitric oxide (NO) production inhibitory assay, LPS-stimulated RAW 264.7 cells, Griess reagent
# Format: cell-based
# settings: Mus musculus, RAW264.7, 24 h, read-out: NO Production Inhibition IC50
outcome_measure: pIC50
Scale: negative log10 of molar concentration, which is what pIC50 denotes.

Supply pIC50 measured with nitric oxide (NO) production in RAW 264.7 cells for C/C=C(\C)[C@@H](OC(C)=O)[C@@H](C)C1=CC(=O)C2=C(O[C@]3(C)CC[C@H]4O[C@@H](C(C)(C)O)CC[C@]4(C)[C@H]3[C@@H]2O)C1=O [Compound 3, stemphone] .
4.48

###

# protocol_notes: Cytotoxicity assay against colorectal cancer SW480 cells, MTT
# settings: human, SW480 colorectal cancer cells
outcome_measure: viability at 24 h, 6.25 µg/mL (%)
# number only, unit % dropped from output

molecule	viability at 24 h, 6.25 µg/mL [%]
CC[C@H](C)[C@@H](OC(C)=O)[C@@H](C)C1=CC(=O)C2=C(O[C@]3(C)CC[C@H]4O[C@@H](C(C)(C)O)CC[C@]4(C)[C@H]3[C@@H]2O)C1=O [Compound 2, cochlioquinone A]	30.8

Query molecule follows.
Note down viability at 24 h, 6.25 µg/mL recorded for CC[C@H](C)[C@@H](OC(C)=O)[C@@H](C)C1=CC(=O)C2=C(O[C@]3(C)CC[C@H]4O[C@@H](C(C)(C)O)CC[C@]4(C)C3=C2)C1=O [Compound 4, anhydrocochlioquinone A]
17.3

###

viability at 24 h, 100 µg/mL values, listed per item
# protocol_notes: Cytotoxicity assay against colorectal cancer SW480 cells, MTT
# settings: human, SW480 colorectal cancer cells
# number only, unit % dropped from output

molecule	viability at 24 h, 100 µg/mL [%]
C/C1=C\C[C@]2(C)C(=O)C(O)=C([C@H](C)CO)[C@H]2C/C=C(\C)[C@@H](O)CC/C(C)=C/CC1	97.7
CC[C@H](C)[C@@H](OC(C)=O)[C@@H](C)C1=CC(=O)C2=C(O[C@]3(C)CC[C@H]4O[C@@H](C(C)(C)O)CC[C@]4(C)[C@H]3[C@@H]2O)C1=O	14.9
CC[C@H](C)[C@@H](OC(C)=O)[C@@H](C)C1=CC(=O)C2=C(O[C@]3(C)CC[C@H]4O[C@@H](C(C)(C)O)CC[C@]4(C)C3=C2)C1=O [Compound 4, anhydrocochlioquinone A]	14.4

Query molecule follows.
Note down viability at 24 h, 100 µg/mL recorded for CC[C@H](C)[C@@H](OC(C)=O)[C@@H](C)C1=C(N)C(=O)C2=C(O[C@]3(C)CC[C@H]4O[C@@H](C(C)(C)O)CC[C@]4(C)[C@H]3[C@@H]2O)C1=O
82.6
